protocol details: Terminal half life in Sprague-Dawley rat at 3 mg/kg, ip
Type: ADME, organism-based
Design: dose 3 mg/kg, route intraperitoneal
assay context: in vivo, read-out: beta t1/2
measure: half-life (h)
Just the number in h, nothing appended.

Inquiry: Fill blank: measured half-life of the compound C(=N\OC1CN2CCC1CC2)/c1ccccc1OCc1ccccc1 (stereo unspecified) is ____.
Reply text: 6.1

###

protocol details: Cytotoxicity against mouse […] cells assessed as cell viability at 5 uM
Type: cell-based
assay context: HT22 cells, read-out: Activity
measure: viability at 5 µM (%)
Express your answer in %, writing the number without its unit.

Some entries whose results are on file:
molecule="C(=N\\OC1CN2CCC1CC2)/c1ccccc1OCc1ccccc1 (stereo unspecified)" measure="viability at 5 µM" readout_units=% data_value=92
molecule="CN1CCCC(O/N=C/c2ccccc2OCc2ccccc2)C1 (stereo unspecified)" measure="viability at 5 µM" readout_units=% data_value=112
molecule="C(=N\\OC1CCN(Cc2ccccc2)C1)/c1ccccc1OCc1ccccc1 (stereo unspecified)" measure="viability at 5 µM" readout_units=% data_value=99
molecule="CC(C)N1CCC(O/N=C/c2ccccc2OCc2ccccc2)C1 (stereo unspecified)" measure="viability at 5 µM" readout_units=% data_value=67
molecule="CN1CCC(O/N=C/c2ccccc2OCc2cccc(F)c2)C1 (stereo unspecified)" measure="viability at 5 µM" readout_units=% data_value=87

Inquiry: What does the record list as viability at 5 µM for Clc1ccc(COc2ccccc2/C=N/OC2CCN(Cc3ccccc3)C2)cc1Cl (stereo unspecified) ?
Reply text: 83

###

protocol details: Tmax in Sprague-Dawley rat at 10 mg/kg, po
Type: ADME, organism-based
Parameters: dose 10 mg/kg, route oral
assay context: in vivo
measure: Tmax (h)
Express the result in h but write the number alone.

Inquiry: Would you kindly share the measured Tmax for Clc1ccc(COc2ccccc2/C=N/OC2CCN(Cc3ccccc3)C2)cc1Cl (stereo unspecified) ?
Reply text: 2

###

protocol details: Bioavailability in Sprague-Dawley rat at 10 mg/kg, po
assay context: in vivo
measure: bioavailability (%)
All answers are understood in %, so give the number only.

Inquiry: Quick check: bioavailability of Clc1ccc(COc2ccccc2/C=N/OC2CCN(Cc3ccccc3)C2)cc1Cl (stereo unspecified) ?
Reply text: 38.1

###

protocol details: Metabolic stability in human liver microsomes at 1 uM after 30 mins by LC/MS analysis
Format: ADME, Microsome
assay context: read-out: Stability
# key: entry, value: remaining at 0.5 h, 1 µM
The response must be a number in % with no trailing unit.

compound="Clc1ccc(COc2ccccc2/C=N/OC2CCN(Cc3ccccc3)C2)cc1Cl (configuration not stated)" readout_units=% data_value=47.8

Below: the item to evaluate.
Inquiry: Query (compound): C(=N\OC1CN2CCC1CC2)/c1ccccc1OCc1ccccc1 (configuration not stated) ; field requested: remaining at 0.5 h, 1 µM
Reply text: 85

###

protocol details: AUClast in Sprague-Dawley rat at 3 mg/kg, ip
Type: ADME, organism-based
Set-up: dose 3 mg/kg, route intraperitoneal, time 0 - last
assay context: plasma
measure: AUC(0-t) (ng·h/mL)
Please state the figure in ng·h/mL; there is no need to write the unit.

Inquiry: // returns reported AUC(0-t) for input C(=N\OC1CN2CCC1CC2)/c1ccccc1OCc1ccccc1 (stereo unspecified)
Reply text: 930

###

protocol details: Cmax in Sprague-Dawley rat at 10 mg/kg, iv
Format: ADME, organism-based
Design: dose 10 mg/kg, route intravenous
assay context: in vivo
measure: Cmax (ng/mL)
State the answer as a number, implicitly in ng/mL.

Inquiry: // returns reported Cmax for input Clc1ccc(COc2ccccc2/C=N/OC2CCN(Cc3ccccc3)C2)cc1Cl (stereo unspecified)
Reply text: 44500
